All figures here come from ChEMBL document CHEMBL1136638.

target: Intercellular adhesion molecule (ICAM-1), Integrin alpha-L/beta-2 (Homo sapiens, UniProt P05107+P05362+P20701); test: Concentration required to inhibit binding of ICAM-1 to LFA-1 (Leukocyte function-associated antigen-1), evaluated ELISA
Sequence (P20701 whole entry): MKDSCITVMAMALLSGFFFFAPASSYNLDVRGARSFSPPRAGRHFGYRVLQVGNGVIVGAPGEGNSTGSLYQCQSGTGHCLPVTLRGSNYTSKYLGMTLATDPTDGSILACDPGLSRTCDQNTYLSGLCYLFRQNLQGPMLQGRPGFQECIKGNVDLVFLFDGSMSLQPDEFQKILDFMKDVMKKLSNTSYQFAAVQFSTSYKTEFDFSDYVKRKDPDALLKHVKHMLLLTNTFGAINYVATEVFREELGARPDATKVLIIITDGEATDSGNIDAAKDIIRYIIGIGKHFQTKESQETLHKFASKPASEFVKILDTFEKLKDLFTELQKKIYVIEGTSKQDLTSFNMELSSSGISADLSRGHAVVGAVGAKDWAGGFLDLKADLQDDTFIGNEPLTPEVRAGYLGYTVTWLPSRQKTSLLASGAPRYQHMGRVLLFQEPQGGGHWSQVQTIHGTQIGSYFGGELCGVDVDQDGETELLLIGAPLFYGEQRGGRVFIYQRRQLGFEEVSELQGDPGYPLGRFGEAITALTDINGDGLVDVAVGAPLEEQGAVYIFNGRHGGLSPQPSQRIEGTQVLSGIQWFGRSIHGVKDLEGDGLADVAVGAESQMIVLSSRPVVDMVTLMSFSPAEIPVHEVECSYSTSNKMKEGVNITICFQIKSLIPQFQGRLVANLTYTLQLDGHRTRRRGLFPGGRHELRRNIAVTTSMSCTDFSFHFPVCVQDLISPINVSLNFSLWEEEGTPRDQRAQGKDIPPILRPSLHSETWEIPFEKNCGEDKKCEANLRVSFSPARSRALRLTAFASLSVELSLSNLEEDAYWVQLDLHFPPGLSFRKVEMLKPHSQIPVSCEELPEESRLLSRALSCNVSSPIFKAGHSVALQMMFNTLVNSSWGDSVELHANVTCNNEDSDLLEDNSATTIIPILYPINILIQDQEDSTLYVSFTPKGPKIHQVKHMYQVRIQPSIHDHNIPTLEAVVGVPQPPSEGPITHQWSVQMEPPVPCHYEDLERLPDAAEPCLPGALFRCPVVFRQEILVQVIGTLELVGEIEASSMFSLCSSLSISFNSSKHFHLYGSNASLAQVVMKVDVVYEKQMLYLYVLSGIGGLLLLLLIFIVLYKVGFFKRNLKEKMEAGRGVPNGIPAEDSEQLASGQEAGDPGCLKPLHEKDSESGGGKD
Sequence (P05362 whole entry): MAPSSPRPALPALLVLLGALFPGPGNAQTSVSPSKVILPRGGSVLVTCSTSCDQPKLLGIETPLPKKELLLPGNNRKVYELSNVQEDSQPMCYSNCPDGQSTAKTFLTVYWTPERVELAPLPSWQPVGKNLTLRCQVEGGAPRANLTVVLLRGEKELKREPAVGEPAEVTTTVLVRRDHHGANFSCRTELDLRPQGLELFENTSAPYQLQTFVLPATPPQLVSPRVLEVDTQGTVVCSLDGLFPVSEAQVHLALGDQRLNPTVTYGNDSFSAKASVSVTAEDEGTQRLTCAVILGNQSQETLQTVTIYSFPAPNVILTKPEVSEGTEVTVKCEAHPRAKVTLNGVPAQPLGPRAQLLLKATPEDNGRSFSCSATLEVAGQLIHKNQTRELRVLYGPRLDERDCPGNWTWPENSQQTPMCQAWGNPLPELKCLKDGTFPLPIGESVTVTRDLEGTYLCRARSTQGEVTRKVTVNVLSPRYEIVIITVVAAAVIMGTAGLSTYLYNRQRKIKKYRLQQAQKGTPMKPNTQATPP
Sequence (P05107 whole entry): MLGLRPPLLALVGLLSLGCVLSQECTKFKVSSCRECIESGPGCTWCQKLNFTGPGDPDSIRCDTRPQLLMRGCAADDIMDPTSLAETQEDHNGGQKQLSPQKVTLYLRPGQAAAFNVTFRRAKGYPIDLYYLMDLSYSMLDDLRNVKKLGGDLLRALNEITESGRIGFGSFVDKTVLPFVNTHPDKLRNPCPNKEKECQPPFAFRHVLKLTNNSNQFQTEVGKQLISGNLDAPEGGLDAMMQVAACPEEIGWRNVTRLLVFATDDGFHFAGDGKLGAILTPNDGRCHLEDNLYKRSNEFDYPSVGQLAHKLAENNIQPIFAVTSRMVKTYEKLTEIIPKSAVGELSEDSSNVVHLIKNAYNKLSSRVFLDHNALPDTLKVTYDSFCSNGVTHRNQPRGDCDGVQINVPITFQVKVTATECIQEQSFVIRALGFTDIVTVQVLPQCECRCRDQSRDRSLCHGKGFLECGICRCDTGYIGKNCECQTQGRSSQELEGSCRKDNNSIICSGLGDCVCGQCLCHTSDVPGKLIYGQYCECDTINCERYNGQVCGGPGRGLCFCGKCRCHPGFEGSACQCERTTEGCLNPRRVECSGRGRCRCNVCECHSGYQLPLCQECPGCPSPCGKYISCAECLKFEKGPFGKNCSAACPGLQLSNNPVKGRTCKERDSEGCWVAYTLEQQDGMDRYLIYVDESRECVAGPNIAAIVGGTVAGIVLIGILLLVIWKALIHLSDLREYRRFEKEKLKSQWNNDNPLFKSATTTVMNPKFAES
For each entry below, report its IC50 value.

INPUT: IC50 for O=C(O)C[C@H](NC(=O)c1ccccc1Br)C(=O)O ?
OUTPUT: > 200 µM

INPUT: IC50 for O=C(NCCc1c[nH]c2ccccc12)c1ccccc1Br ?
OUTPUT: > 1000 µM

INPUT: IC50 for O=C(N[C@@H](Cc1cnc[nH]1)C(=O)O)c1ccccc1Br ?
OUTPUT: 0.75 µM
